assay: Ratio of unbound drug level in mouse brain to blood at 5 mg/kg administered through oral gavage after 2 hrs; details: brain/blood
Measured Kp uu at 2 h, listed per entry for reference.

Please review the entries below; each comes with its answer.
> print(dat)
                                smiles.repr       measure   val
1  COc1nn(-c2ccccn2)c2cc(-c3ccc([C@H]4C[C@@H]4C(=O)O)cc3)cc(F)c12  Kp uu at 2 h  0.45
2  Cc1ccc(-n2nc(C)c3cnc(-c4ccc([C@H]5C[C@@H]5C(=O)O)cc4F)cc32)nc1  Kp uu at 2 h  0.14

Entry under test: `COc1nn(-c2ccccn2)c2cc(-c3ccc([C@H]4C[C@@H]4C(=O)O)cc3)ccc12` . Its Kp uu at 2 h was 0.86

* * *

assay: Ratio of drug level in mouse brain to blood at 5 mg/kg administered through oral gavage after 2 hrs; type: ADME, organism-based
Decide by Kp at 2 h: equal to or exceeding 0.8 means YES, less means NO.

Completed entries (count: 3):
> print(dat)
                                smiles.repr  cat
1  COc1nn(-c2ccccn2)c2cc(-c3ccc([C@H]4C[C@@H]4C(=O)O)cc3)ccc12  YES
2  COc1nn(-c2ccc(C)cc2)c2cc(-c3ccc([C@H]4C[C@@H]4C(=O)O)cc3)cc(F)c12   NO
3  Cc1ccc(-n2nc(C)c3cnc(-c4ccc([C@H]5C[C@@H]5C(=O)O)cc4F)cc32)nc1   NO

In: Please indicate if the recorded Kp at 2 h for `COc1nn(-c2ccccn2)c2cc(-c3ccc([C@H]4C[C@@H]4C(=O)O)cc3)cc(F)c12` meets or exceeds 0.8.
Out: YES

* * *

Molecular target: Free fatty acid receptor 4 (Homo sapiens)
Sequence (whole entry): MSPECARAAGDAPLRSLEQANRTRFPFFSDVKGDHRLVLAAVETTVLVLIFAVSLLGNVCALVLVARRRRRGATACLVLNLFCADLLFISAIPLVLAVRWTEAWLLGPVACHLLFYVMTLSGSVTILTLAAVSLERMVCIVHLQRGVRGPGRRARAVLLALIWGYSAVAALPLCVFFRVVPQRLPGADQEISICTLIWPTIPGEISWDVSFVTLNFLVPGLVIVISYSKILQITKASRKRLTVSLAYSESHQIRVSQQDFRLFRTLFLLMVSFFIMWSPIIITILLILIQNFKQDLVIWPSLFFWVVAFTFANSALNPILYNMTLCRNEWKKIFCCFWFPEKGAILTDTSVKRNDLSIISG
Experiment: Agonist activity at human GPR120 expressed in CHO-FlpIn cells after 15 mins by DMR assay relative to control
Format: cell-based
Parameter Efficacy: see the listing below.
Your answer is read as %, so omit the unit and give the number.

Some solved cases for reference:
> print(dat)
                                smiles.repr   measure  unit.descriptor  val
1  Cc1nn(-c2ccccn2)c2cc(-c3ccc(CCCC(=O)O)cc3)ccc12  Efficacy                %  128
2  Cc1nn(-c2ccccn2)c2cc(-c3ccc(CCC(=O)O)cc3C#N)ccc12  Efficacy                %   80

Entry `Cc1nn(-c2ccccn2)c2cc(-c3ccc(CCC(=O)O)cc3F)ccc12` under Free fatty acid receptor 4 (Homo sapiens) had Efficacy of 113
